# System: Escherichia coli TOP10
# assay.notes: shrunken log2 fold change of peptide-encoding DNA abundance (4.5 h post-induction vs induction); higher = less antimicrobial activity (less host growth inhibition)
# experimental.conditions: time post-induction: 4.5 h; library: site-saturation at positions 5, 18, 19, 20
readout.name: shrunken log2 fold change
Answer field: number only, no words.

Sample answers from the record:
INSERT INTO assay_data (residues, system_under_test, readout_name, numeric_readout) VALUES
  ('RRIRGRPPRLPRPRPRPVQGPRP', 'Escherichia coli TOP10', 'shrunken log2 fold change', 0.301),
  ('RRIRIRPPRLPRPRPRPNGTPRP', 'Escherichia coli TOP10', 'shrunken log2 fold change', -0.201),
  ('RRIRSRPPRLPRPRPRPLMCPRP', 'Escherichia coli TOP10', 'shrunken log2 fold change', -0.471),
  ('RRIRGRPPRLPRPRPRPPSWPRP', 'Escherichia coli TOP10', 'shrunken log2 fold change', 1.24),
  ('RRIRNRPPRLPRPRPRPYFVPRP', 'Escherichia coli TOP10', 'shrunken log2 fold change', -0.312);

Then this sequence:
[Q] Reported shrunken log2 fold change, sequence `RRIRCRPPRLPRPRPRPERGPRP` : ____
[A] 0.472

====

# Tested on: Escherichia coli TOP10
# assay.notes: shrunken log2 fold change of peptide-encoding DNA abundance (4.5 h post-induction vs induction); higher = less antimicrobial activity (less host growth inhibition)
# experimental.conditions: time post-induction: 4.5 h; library: site-saturation at positions 5, 18, 19, 20
readout.name: shrunken log2 fold change
Response field accepts a number only; no unit should be typed.

Before answering, review these 2 worked examples.
INSERT INTO assay_data (residues, numeric_readout) VALUES
  ('RRIRERPPRLPRPRPRPVYNPRP', -0.0493),
  ('RRIRLRPPRLPRPRPRPGAGPRP', 0.448);

Now, please, on to the next sequence.
[Q] Param readout = shrunken log2 fold change; param system = Escherichia coli TOP10; param query = `RRIRVRPPRLPRPRPRPGVFPRP` ; response: value
[A] 0.117

====

# Test system: Escherichia coli TOP10
# assay.notes: shrunken log2 fold change of peptide-encoding DNA abundance (4.5 h post-induction vs induction); higher = less antimicrobial activity (less host growth inhibition)
# experimental.conditions: time post-induction: 4.5 h; library: site-saturation at positions 5, 18, 19, 20
# shrunken log2 fold change annotations
Write the number on its own, no unit after it.

Worked cases, answers included:
INSERT INTO results (residues, readout_name, numeric_readout) VALUES
  ('RRIRCRPPRLPRPRPRPSIGPRP', 'shrunken log2 fold change', -0.098),
  ('RRIRIRPPRLPRPRPRPQGSPRP', 'shrunken log2 fold change', -0.0316),
  ('RRIRHRPPRLPRPRPRPYCQPRP', 'shrunken log2 fold change', -0.746),
  ('RRIRVRPPRLPRPRPRPNKLPRP', 'shrunken log2 fold change', -0.325),
  ('RRIRERPPRLPRPRPRPHHLPRP', 'shrunken log2 fold change', -0.143),
  ('RRIRWRPPRLPRPRPRPVTFPRP', 'shrunken log2 fold change', -0.186),
  ('RRIRHRPPRLPRPRPRPQLLPRP', 'shrunken log2 fold change', -0.197);

Query sequence follows.
[Q] API: value(readout= shrunken log2 fold change, system= Escherichia coli TOP10, query= `RRIRCRPPRLPRPRPRPNGIPRP` )
[A] -0.117

====

# Tested on: Escherichia coli TOP10
# assay.notes: shrunken log2 fold change of peptide-encoding DNA abundance (4.5 h post-induction vs induction); higher = less antimicrobial activity (less host growth inhibition)
# experimental.conditions: time post-induction: 4.5 h; library: site-saturation at positions 5, 18, 19, 20
readout.name: shrunken log2 fold change
The reply should be a number, written without any unit.

Some sequences with recorded shrunken log2 fold change:
INSERT INTO results (residues, readout_name, numeric_readout) VALUES
  ('RRIRGRPPRLPRPRPRPGCNPRP', 'shrunken log2 fold change', 0.773),
  ('RRIRLRPPRLPRPRPRPEMVPRP', 'shrunken log2 fold change', 0.201),
  ('RRIRIRPPRLPRPRPRPLCEPRP', 'shrunken log2 fold change', -0.332),
  ('RRIRPRPPRLPRPRPRPRMFPRP', 'shrunken log2 fold change', 0.0598),
  ('RRIRMRPPRLPRPRPRPPHMPRP', 'shrunken log2 fold change', 0.296),
  ('RRIRGRPPRLPRPRPRPKAHPRP', 'shrunken log2 fold change', 0.625),
  ('RRIRNRPPRLPRPRPRPLHFPRP', 'shrunken log2 fold change', -0.563),
  ('RRIRPRPPRLPRPRPRPQLFPRP', 'shrunken log2 fold change', 0.0893),
  ('RRIRYRPPRLPRPRPRPKHIPRP', 'shrunken log2 fold change', -0.66),
  ('RRIRIRPPRLPRPRPRPINIPRP', 'shrunken log2 fold change', -1.41);

[Q] Quick one: shrunken log2 fold change of `RRIRMRPPRLPRPRPRPAMYPRP` ?
[A] 2.95

[Q] Data request, read-out shrunken log2 fold change, for `RRIRKRPPRLPRPRPRPTHMPRP`
[A] 0.37

[Q] Need shrunken log2 fold change of `RRIRNRPPRLPRPRPRPMIGPRP` , thanks.
[A] -0.536

[Q] Fill in: shrunken log2 fold change of `RRIRMRPPRLPRPRPRPNIDPRP` is ___
[A] -0.764

[Q] For `RRIRIRPPRLPRPRPRPMHQPRP` , what is its reported shrunken log2 fold change?
[A] -0.121

====

The following sequences are listed with their measured shrunken log2 fold change values.
# Test system: Escherichia coli TOP10;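 also: peptides expressed intracellularly from a pBAD plasmid library in pooled LB shake-flask culture, induced with 0.3% L-arabinose, DNA abundance read by NGS, three biological replicates, DESeq2 with apeglm shrinkage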
# assay.notes: shrunken log2 fold change of peptide-encoding DNA abundance (4.5 h post-induction vs induction); higher = less antimicrobial activity (less host growth inhibition)
# experimental.conditions: time post-induction: 4.5 h; library: site-saturation at positions 5, 18, 19, 20
Please reply with the number alone, leaving off any unit.

Example entries begin here.
INSERT INTO measurements (residues, system_under_test, readout_name, numeric_readout) VALUES
  ('RRIRYRPPRLPRPRPRPWWEPRP', 'Escherichia coli TOP10', 'shrunken log2 fold change', -0.0644),
  ('RRIRPRPPRLPRPRPRPEVYPRP', 'Escherichia coli TOP10', 'shrunken log2 fold change', 0.0493),
  ('RRIRSRPPRLPRPRPRPTRWPRP', 'Escherichia coli TOP10', 'shrunken log2 fold change', 0.721),
  ('RRIRVRPPRLPRPRPRPGTVPRP', 'Escherichia coli TOP10', 'shrunken log2 fold change', 0.421),
  ('RRIRDRPPRLPRPRPRPRGDPRP', 'Escherichia coli TOP10', 'shrunken log2 fold change', 0.231);

[Q] # lookup: shrunken log2 fold change of `RRIRPRPPRLPRPRPRPHSLPRP`
[A] -0.0621

[Q] Consider the sequence shown here: `RRIRRRPPRLPRPRPRPDEYPRP` What is its recorded shrunken log2 fold change?
[A] -0.0588

[Q] Entry `RRIRYRPPRLPRPRPRPCHIPRP` : reported shrunken log2 fold change = ?
[A] -0.0462

[Q] Need shrunken log2 fold change of `RRIRIRPPRLPRPRPRPIHLPRP` , thanks.
[A] -0.352

[Q] Given the sequence `RRIRMRPPRLPRPRPRPCSHPRP` , what is its reported shrunken log2 fold change?
[A] -0.167

[Q] Which measured shrunken log2 fold change value corresponds to `RRIRARPPRLPRPRPRPHNWPRP` ?
[A] 0.129

[Q] Which shrunken log2 fold change value belongs to `RRIRWRPPRLPRPRPRPLDCPRP` ?
[A] -0.117

[Q] Need shrunken log2 fold change of `RRIRVRPPRLPRPRPRPGETPRP` , thanks.
[A] -0.238

[Q] # shrunken log2 fold change lookup, item `RRIRGRPPRLPRPRPRPFIIPRP`
[A] 0.102

[Q] # query: shrunken log2 fold change of entry `RRIRNRPPRLPRPRPRPMCNPRP`
[A] -0.0631

[Q] // lookup shrunken log2 fold change for `RRIRTRPPRLPRPRPRPSATPRP`
[A] 0.273

[Q] Param item = `RRIRYRPPRLPRPRPRPHMGPRP` ; retrieve measured shrunken log2 fold change.
[A] 3.73

[Q] Record request: shrunken log2 fold change value, item `RRIRGRPPRLPRPRPRPGFYPRP`
[A] 0.512

[Q] Given the sequence `RRIRTRPPRLPRPRPRPYYKPRP` , what is its reported shrunken log2 fold change?
[A] -0.38

[Q] Look at this sequence and give its reported shrunken log2 fold change. `RRIRPRPPRLPRPRPRPFNNPRP`
[A] -0.836

[Q] Record request: shrunken log2 fold change value, item `RRIRTRPPRLPRPRPRPIRFPRP`
[A] -0.0183

[Q] Dear colleague, I am looking for the recorded shrunken log2 fold change of the following sequence: `RRIRHRPPRLPRPRPRPEHGPRP`
[A] -0.00141

[Q] Fill blank: measured shrunken log2 fold change of the sequence `RRIRDRPPRLPRPRPRPPGNPRP` is ____.
[A] 0.21

[Q] What does the data say about its shrunken log2 fold change? Entry: `RRIRKRPPRLPRPRPRPDMKPRP`
[A] -0.0241

[Q] Which shrunken log2 fold change reading was recorded for the sequence `RRIRQRPPRLPRPRPRPSSYPRP` ?
[A] -0.416

[Q] Fill in the blank: the reported shrunken log2 fold change of `RRIRTRPPRLPRPRPRPCIDPRP` is ____.
[A] -0.519

[Q] // shrunken log2 fold change lookup, key: `RRIRARPPRLPRPRPRPQWYPRP`
[A] -0.523

[Q] Record request: shrunken log2 fold change value, item `RRIRCRPPRLPRPRPRPTEFPRP`
[A] -0.0561

[Q] Need shrunken log2 fold change, item `RRIRERPPRLPRPRPRPLMYPRP`
[A] -0.0754

[Q] Using the record for `RRIRMRPPRLPRPRPRPHLCPRP` , report its shrunken log2 fold change.
[A] -0.117
